biological target: DNA polymerase eta (Homo sapiens) (UniProt Q9Y253); experiment: qHTS for Inhibitors of Polymerase Eta; conditions: recombinant Pol eta, fluorescent DNA replication assay; series mostly up to 114 µM
Sequence (Q9Y253 whole entry, looked up): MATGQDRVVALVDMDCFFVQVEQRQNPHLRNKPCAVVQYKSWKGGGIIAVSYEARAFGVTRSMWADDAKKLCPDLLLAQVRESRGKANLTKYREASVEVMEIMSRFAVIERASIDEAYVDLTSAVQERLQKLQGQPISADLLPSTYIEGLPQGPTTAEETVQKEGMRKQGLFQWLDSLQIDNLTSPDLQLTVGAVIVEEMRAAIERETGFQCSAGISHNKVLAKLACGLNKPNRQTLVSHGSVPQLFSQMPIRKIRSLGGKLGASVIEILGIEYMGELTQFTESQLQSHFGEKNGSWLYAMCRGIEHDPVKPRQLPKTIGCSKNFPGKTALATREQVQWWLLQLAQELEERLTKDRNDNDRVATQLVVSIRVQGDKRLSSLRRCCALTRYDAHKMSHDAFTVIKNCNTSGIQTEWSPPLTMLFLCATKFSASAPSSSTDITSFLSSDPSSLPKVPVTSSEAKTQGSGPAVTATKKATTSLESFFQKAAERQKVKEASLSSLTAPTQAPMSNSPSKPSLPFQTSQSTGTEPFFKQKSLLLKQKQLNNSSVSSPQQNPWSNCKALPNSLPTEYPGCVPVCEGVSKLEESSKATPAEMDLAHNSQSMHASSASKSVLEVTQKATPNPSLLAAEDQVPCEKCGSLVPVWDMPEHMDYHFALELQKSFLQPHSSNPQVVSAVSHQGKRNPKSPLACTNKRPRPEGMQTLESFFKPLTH
Screen size: about 390,000 compounds; about 4,700 (1.2%) were called active. Not shown: some 4% with an inconclusive outcome. Calls come from the whole dose curve; as a rule, active = well fitted inhibition curve with a large enough effect; inconclusive = small, poorly fitted or top-dose-only effect, or another doubt; inactive = no such curve, though single readings can be large or run the other way. The full list was thinned out, with actives kept by preference.
Outcome codes: yes (active), no (inactive)

compound	system tested	assigned category
C#CCOCCOCCOCCNc1nc(N2CCN(C(=O)CCCCCCCCCCNC(=O)[C@H]([C@@H](C)CC)n3cc(CCCCN=C(N)N)nn3)CC2)nc(N2CCN(C(=O)CCCCCCCCCCNC(=O)[C@H](CO)n3cc(CCCSC)nn3)CC2)n1	DNA polymerase eta (Homo sapiens) (UniProt Q9Y253)	yes
CCOc1ccccc1C(=O)NCC(c1ccc(N(C)C)cc1)N1CCCC1 (stereo not drawn)	DNA polymerase eta (Homo sapiens) (UniProt Q9Y253)	no
C#CCOCCOCCOCCNc1nc(N2CCN(C(=O)CCCCCCCCCCNC(=O)[C@H](CCCCN)n3cc(C)nn3)CC2)nc(N2CCN(C(=O)CCCCCCCCCCNC(=O)[C@H](CO)n3cc(CCCSC)nn3)CC2)n1	DNA polymerase eta (Homo sapiens) (UniProt Q9Y253)	yes
